test system: OVCAR-3; assay: NCI tumour cell line growth inhibition, 48 h
Calls of active or inactive are those of the source. Rule as the data show it: active = GI50 up to about 1.1 µM and inactive = higher.
assay readout: GI50

molecule: COc1cc2c(cc1OC)C13CCN4CC5CCOC6CC(=O)N2C1C6C5CC43 (centres undefined)
assay readout: GI50
test value: > 100 µM (inactive)
//
molecule: CC(=O)Nc1ccc(/C=C/c2ccc(NC(=O)Nc3ccc(/C=C/c4ccc(NC(C)=O)cc4S(=O)(=O)O)c(S(=O)(=O)O)c3)cc2S(=O)(=O)O)c(S(=O)(=O)O)c1
assay readout: GI50
test value: > 100 µM (inactive)
//
molecule: NS(=O)(=O)c1ccc(/N=N/c2c(O)c(C(=O)O)cc3ccccc23)cc1
assay readout: GI50
test value: > 100 µM (inactive)
//
molecule: c1ccc(C2=NOC(c3ccccc3)N2C23CC4CC(CC(C4)C2)C3)cc1 (centres undefined)
assay readout: GI50
test value: > 10 µM (inactive)

###

system: SK-MEL-2; experiment: NCI tumour cell line growth inhibition, 48 h
Calls of active or inactive are those of the source. Cut-off read from the data, not from the text of the source: active = GI50 up to about 1.1 µM and inactive = higher.

compound: CNS(=O)(=O)NN(C)S(=O)(=O)c1ccc(Cl)cc1
tgt: SK-MEL-2
GI50: > 100 µM (inactive)
//
compound: COc1ccc(NC(=O)CC(=O)N2N=C(N(c3ccccc3)c3ccccc3)CC2c2ccccc2)cc1 (stereo unspecified)
tgt: SK-MEL-2
GI50: > 100 µM (inactive)
//
compound: O=C(c1ccc(Cl)cc1)N(C(=O)N1CCCCC1)c1ccccc1
tgt: SK-MEL-2
GI50: 25.2 µM (inactive)
//
compound: O=C1C=C(Br)C(=O)C12CCc1ccccc12 (stereo unspecified)
tgt: SK-MEL-2
GI50: 19.6 µM (inactive)
//
compound: CCCCCCCCCCCC(=O)N(CCCCCCCCC)CC(O)C(O)C(OC1OC(CO)C(O)C(O)C1O)C(O)CO (stereo unspecified)
tgt: SK-MEL-2
GI50: 19.7 µM (inactive)
//
compound: CC(C(=O)OCc1ccccc1)N(Cc1ccccc1)Cc1ccccc1 (stereo unspecified)
tgt: SK-MEL-2
GI50: 29.6 µM (inactive)
//
compound: CN(C)CCNc1c([N+](=O)[O-])sc2ccc(Cl)cc12
tgt: SK-MEL-2
GI50: 33.5 µM (inactive)
//
compound: COc1cccc(/C=N/n2c(Cc3ccc(Cl)cc3)n[nH]c2=O)c1
tgt: SK-MEL-2
GI50: 32.7 µM (inactive)
//
compound: CCCCCCCCCCCCC(=O)CCCCC(=O)O
tgt: SK-MEL-2
GI50: 20.7 µM (inactive)
//
compound: CCOC(=O)c1ccc(Nc2nc3ccccc3n3cccc23)cc1
tgt: SK-MEL-2
GI50: 34.6 µM (inactive)
//
compound: C=C1CCN2CC[C@@H](OC(=O)/C(C)=C\C)[C@@H]12
tgt: SK-MEL-2
GI50: > 100 µM (inactive)

###

tested on: SN12C; assay: NCI tumour cell line growth inhibition, 48 h
Active and inactive are the calls of the source. Rule as the data show it: active = GI50 up to about 1.1 µM and inactive = higher.
Outcomes: T = active, F = inactive

compound: CN(CCc1ccccn1)/[N+]([O-])=N/O.CNCCc1ccccn1
class name: F
--
compound: OC(Cn1cncn1)(Cn1cncn1)c1ccc(Cl)cc1Cl
class name: F
--
compound: O=C1OC(=O)C2=C1C(c1cccs1)C=C(c1cccnc1)N2c1ccncc1 (configuration not stated)
class name: F
--
compound: COc1ccc2oc(S(=O)(=O)N3CC(CCl)c4ccc(N)cc43)cc2c1 (configuration not stated)
class name: T
--
compound: C#C/C=C/CC1OC(C(Br)CC)CC(Br)C2CC1O2 (configuration not stated)
class name: F
--
compound: O=C(c1ccc(Cl)cc1)c1ccc(OCCCOc2ccc(C(=O)c3ccc(Cl)cc3)cc2Cl)c(Cl)c1
class name: F
--
compound: CCC(C)(O)c1cnc(CC(C)C)c(=O)n1O (configuration not stated)
class name: F
